The reported numbers originate from PubChem BioAssay (EPA / NIEHS).

read-out: Glutathione S-transferase M3 (GSTM3), GSTM3 (gene 2947); experiment: LTEA_HepaRG_GSTM3: Life Technologies and Expression Analysis (LTEA) Assay for Glutathione S-transferase M3 (GSTM3) using HepaRG (AID 2283501); conditions: mRNA level, 48 h; actives raise or lower the signal
Calls of active or inactive are those of the source. Rule for the calls: active = hit-call score of the fitted dose curve at least 0.9, where 1 is the maximum; inactive = score below 0.9.
PARAMETER: AC50

Please review the following examples before continuing.
Q: Tell us which AC50 value is on record for O=C(O)CCN(C1(C(=O)NO)CCCC1)S(=O)(=O)c1ccc(Oc2ccc(F)cc2)cc1
Ans: inactive

Q: Tell us which AC50 value is on record for CC(O)CN(CCN(CC(C)O)CC(C)O)CC(C)O (stereo not given)
Ans: inactive

Q: Tell us which AC50 value is on record for CC[C@H]1OC(=O)[C@H](C)[C@@H](O[C@H]2C[C@@](C)(OC)[C@@H](O)[C@H](C)O2)[C@H](C)[C@@H](O[C@@H]2O[C@H](C)C[C@H](N(C)C)[C@H]2O)[C@](C)(O)C[C@@H](C)C(=O)[C@H](C)[C@@H](O)[C@]1(C)O
Ans: inactive

Q: Tell us which AC50 value is on record for O=c1n(CC2CO2)c(=O)n(CC2CO2)c(=O)n1CC1CO1 (stereo not given)
Ans: inactive

Further cases:
Q: Tell us which AC50 value is on record for CCNc1ccccc1
Ans: inactive

Q: Tell us which AC50 value is on record for COc1ccc2sc(C(=O)Nc3nnn[nH]3)c(OC(C)C)c2c1
Ans: 76.2 µM (active)

Q: Tell us which AC50 value is on record for Nc1nc2ncc(CNc3ccc(C(=O)N[C@@H](CCC(=O)O)C(=O)O)cc3)nc2c(=O)[nH]1
Ans: inactive

Q: Tell us which AC50 value is on record for O=C(O)CC(O)C(=O)O (stereo not given)
Ans: inactive

Q: Tell us which AC50 value is on record for Cc1c(-c2cccnc2)c2ccccc2n1CCCCC(=O)O
Ans: inactive

Q: Tell us which AC50 value is on record for COc1cccc(-c2ccc(/C=C\CN3CCCCCC3)cc2Cl)c1
Ans: 79.1 µM (active)

----------
target: Cellular tumor antigen p53 (Homo sapiens) (UniProt P04637); assay: TOX21_p53_BLA_p2_ratio: Tox21 HCT-116 p53 Agonism Beta-lactamase Assay, Ratio, Phase 2 (AID 2283592)
Sequence (P04637 whole entry, looked up): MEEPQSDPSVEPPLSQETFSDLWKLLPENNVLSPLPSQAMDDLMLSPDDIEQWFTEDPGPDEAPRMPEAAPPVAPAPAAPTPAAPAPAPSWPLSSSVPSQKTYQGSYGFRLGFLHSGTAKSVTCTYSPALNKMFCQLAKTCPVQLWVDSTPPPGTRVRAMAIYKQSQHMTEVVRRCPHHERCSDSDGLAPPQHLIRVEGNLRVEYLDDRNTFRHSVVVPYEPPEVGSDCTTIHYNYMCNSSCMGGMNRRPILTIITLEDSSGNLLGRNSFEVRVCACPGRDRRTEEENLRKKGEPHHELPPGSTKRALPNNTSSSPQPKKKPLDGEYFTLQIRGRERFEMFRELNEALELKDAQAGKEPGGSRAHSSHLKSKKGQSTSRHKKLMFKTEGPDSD
Inconclusive results are not listed. Activity calls are given as the source filed them. How the source made its calls: active means hit-call score of the fitted dose curve at least 0.9, where 1 is the maximum; inconclusive means response in the unintended direction; inactive means score below 0.9.
Choose the fitting class; nothing outside active, inactive is accepted.

Q: Would you mind telling me which call this test gave O=C(O)c1cccc(Oc2ccccc2)c1 ?
Ans: inactive

Q: Would you mind telling me which call this test gave CC(=O)OCCC(C)C ?
Ans: inactive

Q: Would you mind telling me which call this test gave CC[C@H]1CC[C@H](NCc2cc3c(cc2OC)[C@H]2C[C@H]2C(=O)N3C)[C@H](c2ccccc2)N1 ?
Ans: inactive

Q: Would you mind telling me which call this test gave CCCC(=O)OCC ?
Ans: inactive

Q: Would you mind telling me which call this test gave Cc1[nH]cnc1C[C@H]1CCc2c(C)c3ccccc3n2C1=O ?
Ans: inactive

Further cases:
Q: Would you mind telling me which call this test gave O=P(OC(CCl)CCl)(OC(CCl)CCl)OC(CCl)CCl ?
Ans: inactive

Q: Would you mind telling me which call this test gave CC(=O)OC[C@H]1O[C@@](COC(C)=O)(O[C@H]2O[C@H](COC(C)=O)[C@@H](OC(C)=O)[C@H](OC(C)=O)[C@H]2OC(C)=O)[C@@H](OC(C)=O)[C@@H]1OC(C)=O ?
Ans: inactive
